Cited source for all entries: ChEMBL document CHEMBL1671817

experimental.protocol: Therapeutic index, ratio of EC50 for human RBC hemolytic activity to MIC for methicillin-resistant Staphylococcus aureus ATCC 33591
applied.conditions: human red blood cells (RBC), read-out: TI

>  <compound.smiles>
CN(C)CCN1CCN(C(=O)C(CN)(Cc2ccc(C(F)(F)F)cc2)Cc2ccc(C(F)(F)F)cc2)CC1.O=C(O)C(F)(F)F.O=C(O)C(F)(F)F

>  <selectivity ratio>
172

$$$$
>  <compound.smiles>
CN1CCN(C(=O)C(CN)(Cc2ccc3ccccc3c2)Cc2ccc3ccccc3c2)CC1.O=C(O)C(F)(F)F.O=C(O)C(F)(F)F

>  <selectivity ratio>
41

$$$$
>  <compound.smiles>
NCCNC(=O)C(CN)(Cc1ccc2ccccc2c1)Cc1ccc2ccccc2c1.O=C(O)C(F)(F)F.O=C(O)C(F)(F)F

>  <selectivity ratio>
59

$$$$
>  <compound.smiles>
CN(C)CCNC(=O)C(CN)(CCCc1ccccc1)CCCc1ccccc1.O=C(O)C(F)(F)F.O=C(O)C(F)(F)F

>  <selectivity ratio>
9.1

$$$$
>  <compound.smiles>
CN(C)CCNC(=O)C(CN)(Cc1ccc2ccccc2c1)Cc1ccc2ccccc2c1.O=C(O)C(F)(F)F.O=C(O)C(F)(F)F

>  <selectivity ratio>
16

$$$$
>  <compound.smiles>
CN(C)CCN1CCN(C(=O)C(CN)(Cc2ccc3ccccc3c2)Cc2ccc3ccccc3c2)CC1.O=C(O)C(F)(F)F.O=C(O)C(F)(F)F

>  <selectivity ratio>
120

$$$$
>  <compound.smiles>
NCCNC(=O)C(CN)(Cc1ccc(C(F)(F)F)cc1)Cc1ccc(C(F)(F)F)cc1.O=C(O)C(F)(F)F.O=C(O)C(F)(F)F

>  <selectivity ratio>
57

$$$$
